# System under test: human recombinant HDAC6 (Homo sapiens, UniProt Q9UBN7)
# Sequence (Q9UBN7 1-1215): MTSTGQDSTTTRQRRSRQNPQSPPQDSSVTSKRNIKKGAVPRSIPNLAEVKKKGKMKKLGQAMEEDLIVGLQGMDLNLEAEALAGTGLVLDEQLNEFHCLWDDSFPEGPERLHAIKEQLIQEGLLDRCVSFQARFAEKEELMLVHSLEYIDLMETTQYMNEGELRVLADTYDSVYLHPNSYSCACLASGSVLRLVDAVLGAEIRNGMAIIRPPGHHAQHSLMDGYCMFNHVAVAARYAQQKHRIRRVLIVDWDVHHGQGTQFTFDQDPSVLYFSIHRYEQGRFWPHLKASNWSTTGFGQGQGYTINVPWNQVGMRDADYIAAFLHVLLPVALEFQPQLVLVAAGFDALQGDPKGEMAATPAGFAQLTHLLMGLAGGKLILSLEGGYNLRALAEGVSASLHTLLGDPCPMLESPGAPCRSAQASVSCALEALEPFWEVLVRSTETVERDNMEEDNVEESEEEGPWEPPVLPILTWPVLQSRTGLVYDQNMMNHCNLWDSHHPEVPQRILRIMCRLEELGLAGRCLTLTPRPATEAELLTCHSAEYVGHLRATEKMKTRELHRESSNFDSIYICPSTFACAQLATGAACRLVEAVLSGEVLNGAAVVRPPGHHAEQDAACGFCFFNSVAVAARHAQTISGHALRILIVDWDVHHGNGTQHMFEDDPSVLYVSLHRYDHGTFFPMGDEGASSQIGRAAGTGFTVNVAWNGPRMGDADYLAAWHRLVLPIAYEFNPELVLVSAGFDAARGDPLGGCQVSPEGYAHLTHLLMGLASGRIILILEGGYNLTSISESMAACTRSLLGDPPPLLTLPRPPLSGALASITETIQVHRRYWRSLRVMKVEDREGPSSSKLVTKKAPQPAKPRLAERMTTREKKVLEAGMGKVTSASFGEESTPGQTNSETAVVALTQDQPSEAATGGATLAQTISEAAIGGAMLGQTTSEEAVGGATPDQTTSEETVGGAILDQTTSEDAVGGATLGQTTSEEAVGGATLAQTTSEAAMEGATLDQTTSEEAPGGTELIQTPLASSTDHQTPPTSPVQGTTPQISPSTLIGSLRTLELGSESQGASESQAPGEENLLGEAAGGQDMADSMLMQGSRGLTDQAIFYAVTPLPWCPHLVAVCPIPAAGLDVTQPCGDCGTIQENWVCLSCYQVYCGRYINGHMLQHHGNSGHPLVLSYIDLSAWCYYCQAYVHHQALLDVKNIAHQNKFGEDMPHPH
# Protocol: HDAC6 enzyme activity inhibition assay (in vitro, fluorimetric)
# Study conditions: human recombinant HDAC6, fluorimetric kit, same protocol as HDAC1
pIC50: −log10 of the molar value.
Readout type: pIC50

Smiles code: C[C@@H]1CN(CC(C)(C)F)C[C@H](C)N1Cc1ccc(C(=O)NO)cc1
pIC50: 6.57

Smiles code: C[C@@H]1CN(Cc2ccc(C(=O)NO)cc2)C[C@H](C)N1Cc1ccccc1-c1cccnc1
pIC50: 7.62

Smiles code: C[C@@H]1CN(Cc2ccc(C(=O)NO)cc2)C[C@H](C)N1Cc1cccc(Cl)c1
pIC50: 8.70

[I] C[C@@H]1CN(C(=O)c2cccc(-c3ccncc3)c2)C[C@H](C)N1Cc1ccc(C(=O)NO)cc1
[II] C[C@@H]1CN(Cc2ccc(C(=O)NO)cc2)C[C@@H](C)N1Cc1ccccc1
Lookup: Which has the higher pIC50, I or II ? Give the chosen item's label as your response.
Found: II

[I] C[C@@H]1CN(Cc2ccccc2-c2cccnc2)C[C@H](C)N1Cc1ccc(C(=O)NO)cc1
[II] C[C@@H]1CN(Cc2ccc(C(=O)NO)cc2)C[C@H](C)N1Cc1ccc(CN2CC(F)(F)C2)cc1
[III] C[C@@H]1CN(Cc2ccc(C(=O)NO)cc2)C[C@H](C)N1C(=O)c1ccc(CN2CCOCC2)cc1
Lookup: Would you mind ranking these molecules by ascending pIC50? Output the labels ranked as instructed.
Found: III, II, I
